# TARGET OR SYSTEM: Serine/threonine-protein kinase PLK1 (Homo sapiens)
# ASSAY SUMMARY: Inhibition of PLK1 (unknown origin) at 10 uM relative to control
ATTRIBUTE MEASURED: inhibition (%)
One number for each entry, in %.

Some molecules with known inhibition results, for comparison:
{"SMILES STR": "CC(C)Nc1c(C(N)=O)nnc2ccc(-c3ccncc3)cc12", "inhibition, %": 25}
{"SMILES STR": "CS(=O)(=O)c1ccc(-c2ccc3c(NC4CCC4)c(C(N)=O)nnc3c2)cc1", "inhibition, %": 14}
{"SMILES STR": "CC(C)Nc1c(C(N)=O)nnc2ccc(-c3cn[nH]c3)cc12", "inhibition, %": 45}

Lab note: each molecule below needs its inhibition filled in.
1. CC(C)Nc1c(C(N)=O)nnc2cc(N3CCOCC3)ccc12
2. CC(C)Nc1c(C(N)=O)cnc2cc(-c3ccc(S(C)(=O)=O)cc3)ccc12
3. CC(C)Nc1c(C(N)=O)nnc2cc(-c3ccncc3)ccc12

1: 3; 2: 1; 3: 33

The molecule listed as "C[C@@H](Nc1c(C(N)=O)nnc2cc(-c3ccc(S(C)(=O)=O)cc3)ccc12)C1CC1" shows inhibition equal to 1

====

# TARGET OR SYSTEM: Dual specificity tyrosine-phosphorylation-regulated kinase 1B (Homo sapiens)
# ASSAY SUMMARY: Inhibition of DYRK1B (unknown origin) at 10 uM relative to control
ATTRIBUTE MEASURED: inhibition (%)
Answers are plain numbers, in %.

Some compounds with known inhibition results, for comparison:
{"SMILES STR": "C[C@@H](Nc1c(C(N)=O)nnc2cc(-c3ccc(S(C)(=O)=O)cc3)ccc12)C1CC1", "READING": 3}
{"SMILES STR": "CC(C)Nc1c(C(N)=O)nnc2ccc(-c3ccncc3)cc12", "READING": 97}
{"SMILES STR": "CC(C)Nc1c(C(N)=O)nnc2cc(-c3ccncc3)ccc12", "READING": 44}
{"SMILES STR": "CC(C)Nc1c(C(N)=O)nnc2cc(N3CCOCC3)ccc12", "READING": 7}

Lab note: each compound below needs its inhibition filled in.
1. CC(C)Nc1c(C(N)=O)nnc2ccc(-c3cn[nH]c3)cc12
2. CC(C)Nc1c(C(N)=O)cnc2cc(-c3ccc(S(C)(=O)=O)cc3)ccc12
3. CS(=O)(=O)c1ccc(-c2ccc3c(NC4CCC4)c(C(N)=O)nnc3c2)cc1

1: 97; 2: 9; 3: 20

====

# TARGET OR SYSTEM: Leucine-rich repeat serine/threonine-protein kinase 2 (Homo sapiens)
# Sequence (Q5S007 whole entry): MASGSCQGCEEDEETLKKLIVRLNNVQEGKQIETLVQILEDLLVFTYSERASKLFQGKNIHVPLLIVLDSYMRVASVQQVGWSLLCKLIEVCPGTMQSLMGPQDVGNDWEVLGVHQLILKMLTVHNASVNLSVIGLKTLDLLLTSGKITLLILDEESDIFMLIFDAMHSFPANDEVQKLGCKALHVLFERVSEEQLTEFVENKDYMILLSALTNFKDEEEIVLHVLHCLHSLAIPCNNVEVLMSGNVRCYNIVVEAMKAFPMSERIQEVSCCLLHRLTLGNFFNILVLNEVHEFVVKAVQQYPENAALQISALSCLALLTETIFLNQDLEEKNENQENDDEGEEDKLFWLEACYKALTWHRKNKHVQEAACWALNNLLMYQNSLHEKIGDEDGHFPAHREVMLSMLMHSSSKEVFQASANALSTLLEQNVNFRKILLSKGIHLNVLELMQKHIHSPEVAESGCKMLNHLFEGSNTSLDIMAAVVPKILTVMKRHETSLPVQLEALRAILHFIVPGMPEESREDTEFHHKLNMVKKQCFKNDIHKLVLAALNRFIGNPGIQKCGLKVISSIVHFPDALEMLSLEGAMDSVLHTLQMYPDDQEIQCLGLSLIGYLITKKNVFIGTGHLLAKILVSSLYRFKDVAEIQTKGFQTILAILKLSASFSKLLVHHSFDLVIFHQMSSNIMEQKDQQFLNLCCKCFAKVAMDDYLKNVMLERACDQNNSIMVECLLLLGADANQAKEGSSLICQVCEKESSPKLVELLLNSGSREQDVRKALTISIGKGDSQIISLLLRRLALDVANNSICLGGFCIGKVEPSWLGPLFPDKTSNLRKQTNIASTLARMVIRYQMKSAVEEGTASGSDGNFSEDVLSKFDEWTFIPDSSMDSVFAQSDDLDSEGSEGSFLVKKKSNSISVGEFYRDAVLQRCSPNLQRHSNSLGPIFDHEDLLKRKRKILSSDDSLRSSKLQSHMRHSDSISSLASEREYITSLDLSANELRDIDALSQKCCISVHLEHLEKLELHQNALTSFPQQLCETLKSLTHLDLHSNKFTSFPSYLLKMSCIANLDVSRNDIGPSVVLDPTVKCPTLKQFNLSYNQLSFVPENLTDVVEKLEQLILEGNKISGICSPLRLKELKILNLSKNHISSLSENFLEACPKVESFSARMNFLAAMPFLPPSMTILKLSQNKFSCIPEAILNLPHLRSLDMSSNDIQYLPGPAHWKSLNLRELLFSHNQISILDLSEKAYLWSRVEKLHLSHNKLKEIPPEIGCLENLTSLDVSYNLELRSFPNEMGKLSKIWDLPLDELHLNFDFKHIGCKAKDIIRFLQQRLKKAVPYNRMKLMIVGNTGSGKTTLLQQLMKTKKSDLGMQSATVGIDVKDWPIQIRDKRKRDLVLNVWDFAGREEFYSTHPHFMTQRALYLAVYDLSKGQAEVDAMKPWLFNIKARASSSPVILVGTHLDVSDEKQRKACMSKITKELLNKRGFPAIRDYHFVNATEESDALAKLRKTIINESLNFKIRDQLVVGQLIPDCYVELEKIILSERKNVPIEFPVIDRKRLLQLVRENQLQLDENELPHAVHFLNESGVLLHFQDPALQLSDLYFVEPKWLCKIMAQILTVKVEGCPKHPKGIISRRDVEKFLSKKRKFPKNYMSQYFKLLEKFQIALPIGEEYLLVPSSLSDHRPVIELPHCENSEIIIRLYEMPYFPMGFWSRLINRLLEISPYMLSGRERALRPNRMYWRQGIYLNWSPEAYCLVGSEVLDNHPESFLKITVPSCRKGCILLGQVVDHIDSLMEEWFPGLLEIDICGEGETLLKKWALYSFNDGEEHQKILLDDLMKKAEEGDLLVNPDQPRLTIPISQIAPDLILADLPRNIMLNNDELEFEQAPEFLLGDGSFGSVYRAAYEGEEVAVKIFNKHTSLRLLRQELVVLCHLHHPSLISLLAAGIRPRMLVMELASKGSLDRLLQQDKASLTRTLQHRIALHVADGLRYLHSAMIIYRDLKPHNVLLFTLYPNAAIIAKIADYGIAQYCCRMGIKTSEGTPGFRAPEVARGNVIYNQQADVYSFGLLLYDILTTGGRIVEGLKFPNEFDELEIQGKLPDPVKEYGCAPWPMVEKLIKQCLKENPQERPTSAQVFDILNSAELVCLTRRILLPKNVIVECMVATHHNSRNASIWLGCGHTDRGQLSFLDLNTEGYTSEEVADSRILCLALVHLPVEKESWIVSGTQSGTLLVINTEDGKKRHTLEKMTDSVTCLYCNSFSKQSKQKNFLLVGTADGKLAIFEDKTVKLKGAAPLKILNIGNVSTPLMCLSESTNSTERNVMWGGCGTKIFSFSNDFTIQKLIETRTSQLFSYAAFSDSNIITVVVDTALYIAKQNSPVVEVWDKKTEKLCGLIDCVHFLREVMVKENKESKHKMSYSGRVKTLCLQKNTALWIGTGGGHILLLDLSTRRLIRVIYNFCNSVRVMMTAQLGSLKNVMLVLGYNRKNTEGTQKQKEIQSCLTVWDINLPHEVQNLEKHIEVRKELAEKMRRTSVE
pIC50: −log10 of the molar value.
Quick rule for you: pIC50 at 7 or higher means Fulfilled, lower means Not fulfilled.

{"SMILES STR": "CS(=O)(=O)c1ccc(-c2ccc3c(NC4CC4)c(C(N)=O)nnc3c2)cc1", "TARGET OR SYSTEM": "Leucine-rich repeat serine/threonine-protein kinase 2 (Homo sapiens)", "DISCRETE LABEL": "Fulfilled"}
{"SMILES STR": "CC[C@@H](C)Nc1c(C(N)=O)nnc2cc(-c3ccc(S(C)(=O)=O)cc3)ccc12", "TARGET OR SYSTEM": "Leucine-rich repeat serine/threonine-protein kinase 2 (Homo sapiens)", "DISCRETE LABEL": "Fulfilled"}
{"SMILES STR": "CC(C)Nc1c(C(N)=O)cnc2cc(-c3ccc(S(C)(=O)=O)cc3)ccc12", "TARGET OR SYSTEM": "Leucine-rich repeat serine/threonine-protein kinase 2 (Homo sapiens)", "DISCRETE LABEL": "Fulfilled"}
{"SMILES STR": "C[C@@H](Nc1c(C(N)=O)nnc2cc(-c3ccncc3)ccc12)C1CC1", "TARGET OR SYSTEM": "Leucine-rich repeat serine/threonine-protein kinase 2 (Homo sapiens)", "DISCRETE LABEL": "Fulfilled"}

In the following, a different compound is considered.
Hi team, for "Cc1c(-c2ccncc2)ccc2c(NC(C)C)c(C(N)=O)nnc12" , is the recorded pIC50 at or above 7?
Not fulfilled

====

Please provide measured inhibition for the entries that follow.
# TARGET OR SYSTEM: Dual specificity protein kinase TTK (Homo sapiens)
# Sequence (whole entry): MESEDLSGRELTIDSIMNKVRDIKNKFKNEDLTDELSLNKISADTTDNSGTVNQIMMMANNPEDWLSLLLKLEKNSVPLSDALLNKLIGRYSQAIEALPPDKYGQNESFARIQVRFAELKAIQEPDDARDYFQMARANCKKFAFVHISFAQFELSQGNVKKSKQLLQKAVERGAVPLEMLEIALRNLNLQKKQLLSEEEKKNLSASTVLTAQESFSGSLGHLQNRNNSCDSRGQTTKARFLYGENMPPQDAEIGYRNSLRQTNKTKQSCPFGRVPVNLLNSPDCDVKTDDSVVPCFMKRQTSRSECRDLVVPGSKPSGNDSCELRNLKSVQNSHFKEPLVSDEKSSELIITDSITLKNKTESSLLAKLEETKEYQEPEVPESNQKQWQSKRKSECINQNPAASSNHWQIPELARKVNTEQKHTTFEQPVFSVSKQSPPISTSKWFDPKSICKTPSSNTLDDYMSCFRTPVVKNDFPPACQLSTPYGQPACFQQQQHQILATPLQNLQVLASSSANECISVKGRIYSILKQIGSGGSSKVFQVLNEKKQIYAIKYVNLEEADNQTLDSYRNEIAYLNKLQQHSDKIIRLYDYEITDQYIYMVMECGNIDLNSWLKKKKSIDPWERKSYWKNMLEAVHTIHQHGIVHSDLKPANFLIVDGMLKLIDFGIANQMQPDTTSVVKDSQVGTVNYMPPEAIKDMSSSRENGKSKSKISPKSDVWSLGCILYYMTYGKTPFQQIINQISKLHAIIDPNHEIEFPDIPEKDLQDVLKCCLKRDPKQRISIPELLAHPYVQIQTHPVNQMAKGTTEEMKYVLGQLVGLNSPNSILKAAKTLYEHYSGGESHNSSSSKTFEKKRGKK
# ASSAY SUMMARY: Inhibition of TTK (unknown origin) at 10 uM relative to control
Answers are plain numbers, in %.

{"SMILES STR": "CC(C)Nc1c(C(N)=O)nnc2cc(N3CCOCC3)ccc12", "READING": 67}

Lab note: each compound below needs its inhibition filled in.
1. C[C@@H](Nc1c(C(N)=O)nnc2cc(-c3ccc(S(C)(=O)=O)cc3)ccc12)C1CC1
2. CC(C)Nc1c(C(N)=O)nnc2ccc(-c3cn[nH]c3)cc12
3. CC(C)Nc1c(C(N)=O)cnc2cc(-c3ccc(S(C)(=O)=O)cc3)ccc12
4. CC(C)Nc1c(C(N)=O)nnc2cc(-c3ccncc3)ccc12
5. CC(C)Nc1c(C(N)=O)nnc2ccc(-c3ccncc3)cc12
6. CS(=O)(=O)c1ccc(-c2ccc3c(NC4CCC4)c(C(N)=O)nnc3c2)cc1

35
97
50
94
93
60

====

# TARGET OR SYSTEM: cAMP-dependent protein kinase catalytic subunit alpha (Homo sapiens)
# ASSAY SUMMARY: Inhibition of PRKACA (unknown origin) at 10 uM relative to control
ATTRIBUTE MEASURED: inhibition (%)
Give bare numbers, in %.

Lab note: each molecule below needs its inhibition filled in.
1. CS(=O)(=O)c1ccc(-c2ccc3c(NC4CCC4)c(C(N)=O)nnc3c2)cc1
2. CC(C)Nc1c(C(N)=O)nnc2ccc(-c3cn[nH]c3)cc12
3. CC(C)Nc1c(C(N)=O)nnc2cc(-c3ccncc3)ccc12

1. 0
2. 53
3. 29

Lab note: each molecule below needs its inhibition filled in.
1. CC(C)Nc1c(C(N)=O)nnc2ccc(-c3ccncc3)cc12
2. CC(C)Nc1c(C(N)=O)nnc2cc(N3CCOCC3)ccc12
3. C[C@@H](Nc1c(C(N)=O)nnc2cc(-c3ccc(S(C)(=O)=O)cc3)ccc12)C1CC1
4. CC(C)Nc1c(C(N)=O)cnc2cc(-c3ccc(S(C)(=O)=O)cc3)ccc12

1. 43
2. -2
3. -1
4. 6

====

# TARGET OR SYSTEM: UniProt P49841
# Sequence (P49841 whole entry, looked up): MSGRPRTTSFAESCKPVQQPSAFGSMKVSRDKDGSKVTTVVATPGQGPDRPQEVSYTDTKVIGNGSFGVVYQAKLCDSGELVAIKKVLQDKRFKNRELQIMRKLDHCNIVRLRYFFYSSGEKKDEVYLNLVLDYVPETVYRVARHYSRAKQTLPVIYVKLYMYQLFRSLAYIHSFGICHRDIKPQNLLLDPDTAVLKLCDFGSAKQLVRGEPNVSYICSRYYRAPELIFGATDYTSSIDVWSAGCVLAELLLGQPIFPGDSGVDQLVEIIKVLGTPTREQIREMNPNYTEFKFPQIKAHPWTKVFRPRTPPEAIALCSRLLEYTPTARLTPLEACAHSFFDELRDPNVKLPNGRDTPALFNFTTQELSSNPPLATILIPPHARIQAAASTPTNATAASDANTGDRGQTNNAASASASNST
# ASSAY SUMMARY: Inhibition of GSK3beta (unknown origin) at 10 uM relative to control
Quick rule for you: inhibition at 90% or higher means t, lower means f.

Completed entries (count: 4):
{"SMILES STR": "CC(C)Nc1c(C(N)=O)nnc2ccc(-c3ccncc3)cc12", "DISCRETE LABEL": "t"}
{"SMILES STR": "CC(C)Nc1c(C(N)=O)cnc2cc(-c3ccc(S(C)(=O)=O)cc3)ccc12", "DISCRETE LABEL": "f"}
{"SMILES STR": "CS(=O)(=O)c1ccc(-c2ccc3c(NC4CCC4)c(C(N)=O)nnc3c2)cc1", "DISCRETE LABEL": "f"}
{"SMILES STR": "C[C@@H](Nc1c(C(N)=O)nnc2cc(-c3ccc(S(C)(=O)=O)cc3)ccc12)C1CC1", "DISCRETE LABEL": "f"}

Hi team, for "CC(C)Nc1c(C(N)=O)nnc2ccc(-c3cn[nH]c3)cc12" , is the recorded inhibition at or above 90%?
t

Hi team, for "CC(C)Nc1c(C(N)=O)nnc2cc(N3CCOCC3)ccc12" , is the recorded inhibition at or above 90%?
f

Recorded values, source ChEMBL document CHEMBL2331489.
